# protocolSummary: Cytotoxicity against LPS/IFNgamma-stimulated mouse J774A1 cells assessed as cell viability at 13 uM after 48 hrs by MTT method (reference value: 100 +/- 1.1%)
# Type: cell-based, J774.A1
# conditionNotes: read-out: Activity
Classify: class 1 when viability at 48 h, 13 µM is strictly less than 90%; class 0 when viability at 48 h, 13 µM is not.

Field: example entries. Status: answers known.
- compound: "O=c1c(-c2ccc(O)cc2)coc2cc(O)cc(O)c12 [GENISTEIN]"
  labelValue: "class 0"
- compound: "CC1(C)O[C@H]2[C@@H](O1)[C@@H](COc1ccc(-c3coc4cc(OC[C@H]5O[C@@H]6OC(C)(C)O[C@@H]6[C@H]6OC(C)(C)O[C@H]65)cc(O)c4c3=O)cc1)O[C@@H]1OC(C)(C)O[C@@H]12"
  labelValue: "class 1"
- compound: "CO[C@H]1O[C@H](COc2cc(O)c3c(=O)c(-c4ccc(O)cc4)coc3c2)[C@@H](O)[C@H](O)[C@H]1O"
  labelValue: "class 1"
- compound: "O=c1c(-c2ccc(O)cc2)coc2cc(OC[C@H]3O[C@H](O)[C@H](O)[C@@H](O)[C@H]3O)cc(O)c12"
  labelValue: "class 0"
- compound: "CO[C@H]1O[C@H](COc2ccc(-c3coc4cc(OC[C@H]5O[C@H](OC)[C@H](O)[C@@H](O)[C@@H]5O)cc(O)c4c3=O)cc2)[C@@H](O)[C@H](O)[C@H]1O"
  labelValue: "class 0"
- compound: "CO[C@H]1O[C@H](COc2cc(O)c3c(=O)c(-c4ccc(O)cc4)coc3c2)[C@@H](OC(C)=O)[C@H](OC(C)=O)[C@H]1OC(C)=O"
  labelValue: "class 0"
- compound: "CC1(C)O[C@H]2[C@@H](O1)[C@@H](COc1cc(O)c3c(=O)c(-c4ccc(O)cc4)coc3c1)O[C@@H]1OC(C)(C)O[C@@H]12"
  labelValue: "class 1"

Let us examine a further case.
Dear colleague, could you confirm whether viability at 48 h, 13 µM of CO[C@H]1O[C@H](COc2ccc(-c3coc4cc(OC[C@H]5O[C@H](OC)[C@H](OC(C)=O)[C@@H](OC(C)=O)[C@@H]5OC(C)=O)cc(O)c4c3=O)cc2)[C@@H](OC(C)=O)[C@H](OC(C)=O)[C@H]1OC(C)=O falls below 90%? Thanks.
class 1

This collection of values is drawn from ChEMBL document CHEMBL3351950.
